Test: protein stability index of a GFP-peptide fusion (yeast GPS) (PSI 1-4); higher = more stable; sorted into four equal gates, so the index is relative within each strain
Details: doa10∆
protein stability index vs 3: at or above is True, below is False.

Input: Reported protein stability index at or above 3? HIPICVTFSFFNPQDTE [RRP45]
Output: False

Input: Reported protein stability index at or above 3? EFIAAVNNPQEETSHLL [RPN10]
Output: False

Input: Reported protein stability index at or above 3? VKQEDMPFNDQGIVPDI [RET1]
Output: False

Input: Reported protein stability index at or above 3? LEQMELSILKGDYSQAT [RPN5]
Output: False

Input: Reported protein stability index at or above 3? ENQPFHGIKDIPIGHVH [AAR2]
Output: False

Input: Reported protein stability index at or above 3? LAIIGDENPDLLGYTGI [PRE8]
Output: False

Input: Reported protein stability index at or above 3? RVLETTLVEFETIKMKE [BRN1]
Output: False

Input: Reported protein stability index at or above 3? GSVMSASVEIVFHDPDH [SMC3]
Output: False

Input: Reported protein stability index at or above 3? DGNNEIFTCQIMNLITN [RPN4]
Output: False

Input: Reported protein stability index at or above 3? KQRLDLARQVKLLLLNT [YIL149C/MLP2]
Output: False

Input: Reported protein stability index at or above 3? IVVATEHNPSAHTASVG [COR1]
Output: False

Input: Reported protein stability index at or above 3? YLFDEIDAALDKQYRTA [SMC3]
Output: False

Input: Reported protein stability index at or above 3? VNLPGGILRRKSESDEL [RRP4]
Output: True

Input: Reported protein stability index at or above 3? SVLSSKPGSKPEKTSTE [SIR3]
Output: True

Input: Reported protein stability index at or above 3? PSTSSNMDVGNPRKRKA [GAL11]
Output: False

Input: Reported protein stability index at or above 3? QERQRQIQKNGPEITPE [PRP8]
Output: False

Input: Reported protein stability index at or above 3? LLQVNKTFCEDPFSDVD [GRR1]
Output: True

Input: Reported protein stability index at or above 3? RSKSSHKNERRVLEIQT [SKI6]
Output: True

Input: Reported protein stability index at or above 3? EAKSFQDEAELVEEKTP [RPC82]
Output: True

Input: Reported protein stability index at or above 3? TASKIIVIDVDYNKKQD [MED1]
Output: False

Input: Reported protein stability index at or above 3? SIKEHSTTMDGANDLGF [MED1]
Output: False

Input: Reported protein stability index at or above 3? SYFYRRIHVNPSYYGVR [BRR2]
Output: False

Input: Reported protein stability index at or above 3? FGTGQSTFGFNNSAPNN [YJL041W/NSP1]
Output: True

Input: Reported protein stability index at or above 3? KNIAQCLSDYTKKISNF [YJL039C/NUP192]
Output: False

Input: Reported protein stability index at or above 3? VRQLYKGKKYQPKDLRA [RPL35A]
Output: True
